// compounds with reported pIC50 on ALK tyrosine kinase receptor (Homo sapiens, UniProt Q9UM73), multi-publication
pIC50: −log10 of the molar value.

Cc1cc2c(c(=O)[nH]1)-c1[nH]c3ccccc3c1CCN2CCc1ccccc1 4.74

Ask | For the compound shown here, `COc1cc(N2CCOCC2)ccc1Nc1ncc(Cl)c(Nc2ccsc2S(=O)(=O)C(C)C)n1` , give the reported pIC50.
Reply | > 9.00

Ask | I have this compound here, `COc1ccc2cc1Nc1nc(ncc1Cl)Nc1ccc(N3CCOCC3)c(c1)CC2` , and I need its recorded pIC50.
Reply | < 6.00

----------
Compiled record: pIC50 values for ALK tyrosine kinase receptor (Homo sapiens) across several sources.
pIC50: −log10 of the molar value.
// label = criterion met if pIC50 is not less than 7, otherwise criterion not met

compound	label-class
COc1cc2c(cc1Nc1ncc(Cl)c(Nc3ccccc3S(=O)(=O)C(C)C)n1)CCC(O)C2(C)C (centres undefined)	criterion met

Ask | Would you say `CC1(C)c2cc(N3CCN(S(C)(=O)=O)CC3)ccc2C(=O)c2c1[nH]c1cc(C#N)ccc21` shows pIC50 at minimum 7?
Reply | criterion met

Ask | Given the entry `C[C@@H](c1ccccc1)N1CCc2c([nH]c3ccc(Br)cc23)-c2c(I)ccnc21` , answer whether its pIC50 meets or surpasses 7.
Reply | criterion not met

Ask | Is pIC50 at least 7? Consider `CC(=O)N1CCc2[nH]c(/C=C3\C(=O)Nc4ccc(C#N)cc43)cc2C1`
Reply | criterion not met

Ask | Please indicate if the recorded pIC50 for `CCN(CC)CCOc1ccc2c(c1)C(C)(C)c1oc3cc(Cl)ccc3c1C2=O` meets or exceeds 7.
Reply | criterion not met

Ask | State whether the measured pIC50 reaches 7, counting equality as reaching it, for `CC1(C)c2ccc(N3CCN(C4CC4)CC3)cc2C(=O)c2c1[nH]c1cc(C#N)ccc21`
Reply | criterion not met

Ask | Given `COC(=O)c1cccc(Oc2nc[nH]c(=O)c2-c2cccc(OC)c2)c1` , state whether its pIC50 is at least 7.
Reply | criterion not met
